Attribution: patent US20250250357A1

biological target: T1, human MSLN full-length protein (NCBI: AAH09272.1) expressed on HEK293T-hMSLN-B8 cells (human, UniProt Q13421 296-598); experiment: FACS on HEK293T-hMSLN-B8 cells
T1 construct: Whole encoded precursor
T1 sequence (Q13421 other isoform, or with tags, fused parts or gaps limits assumed): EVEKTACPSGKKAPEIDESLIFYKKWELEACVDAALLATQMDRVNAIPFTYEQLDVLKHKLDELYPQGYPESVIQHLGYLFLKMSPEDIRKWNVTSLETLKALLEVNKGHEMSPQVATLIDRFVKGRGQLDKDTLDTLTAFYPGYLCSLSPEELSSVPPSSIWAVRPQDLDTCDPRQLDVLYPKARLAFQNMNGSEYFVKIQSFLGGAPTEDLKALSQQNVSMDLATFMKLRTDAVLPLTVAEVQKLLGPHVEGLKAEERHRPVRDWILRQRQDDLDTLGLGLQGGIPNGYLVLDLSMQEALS
Measured parameter: EC50
Kindly report the value followed by its unit.

Entry S009-F6-62.5 (antibody, human IgG1, kappa, V domains shown, human-murine chimeric antibody, human IgG1/kappa constant regions) VH: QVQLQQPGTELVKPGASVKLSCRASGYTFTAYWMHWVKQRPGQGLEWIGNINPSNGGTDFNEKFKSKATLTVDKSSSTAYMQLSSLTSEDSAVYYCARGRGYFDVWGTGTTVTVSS VL: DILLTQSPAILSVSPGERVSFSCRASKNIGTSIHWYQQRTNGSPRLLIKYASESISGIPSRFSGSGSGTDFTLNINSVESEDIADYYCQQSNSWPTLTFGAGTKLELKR ; EC50 = 0.41 nM
